- Target Of Assay: T1, Mouse Id3: Histidine (mouse, UniProt P41133 1-119)
- T1 construct: Fusion protein made in E. coli from vector pGW07; also called m-Id3: His; Mouse Id3 (coated wells); not shown: His tag
- T1 sequence: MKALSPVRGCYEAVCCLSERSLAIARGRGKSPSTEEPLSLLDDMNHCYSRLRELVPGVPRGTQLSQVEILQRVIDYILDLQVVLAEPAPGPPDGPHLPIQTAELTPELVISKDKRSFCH
- Protocol Details: ELISA, Ab 0.005 µg/ml
Listing: A450 of selected binders
Number only, in A450; omit the unit.

A selection of reference data follows.
[
  {
    "Binder": "rabbit monoclonal anti-mouse/human Id3, clone #BCH-4/#17-3 (antibody, V domains shown, Rabbit IgG from a rabbit hybridoma; also called m/h Id3 MoAb 17-3; BCH-3/#17-3) VH: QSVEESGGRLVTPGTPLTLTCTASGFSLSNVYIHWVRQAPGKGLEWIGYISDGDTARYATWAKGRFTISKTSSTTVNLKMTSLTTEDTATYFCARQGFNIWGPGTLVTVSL VL: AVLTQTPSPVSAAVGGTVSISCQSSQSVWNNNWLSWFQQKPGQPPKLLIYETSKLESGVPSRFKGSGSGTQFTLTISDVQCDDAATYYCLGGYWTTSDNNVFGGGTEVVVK",
    "A450, A450": 0.39
  },
  {
    "Binder": "rabbit monoclonal anti-mouse/human Id3, clone #BCH-4/#16-1 (antibody, V domains shown, Rabbit IgG from a rabbit hybridoma; also called m/h Id3 MoAb 16-1) VH: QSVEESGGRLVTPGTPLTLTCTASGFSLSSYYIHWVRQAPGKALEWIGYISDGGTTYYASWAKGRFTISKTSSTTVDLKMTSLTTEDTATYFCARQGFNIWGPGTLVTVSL VL: AVLTQTPSPVSAAVGGTVTISCQSSQSVYNNNWLSWFQQKSGQPPKLLIYETSKLESGVPSRFKGSGSGTQFTLTIIDVQCDDAATYYCLGGYWTTSDNNIFGGGTEVVVK",
    "A450, A450": 0.24
  },
  {
    "Binder": "rabbit monoclonal anti-mouse/human Id3, clone #BCH-4/#6-1 (antibody, V domains shown, Rabbit IgG from a rabbit hybridoma; also called m/h Id3 MoAb 6-1) VH: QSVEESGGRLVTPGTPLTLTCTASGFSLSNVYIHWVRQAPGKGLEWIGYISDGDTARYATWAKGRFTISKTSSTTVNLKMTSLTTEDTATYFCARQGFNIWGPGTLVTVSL VL: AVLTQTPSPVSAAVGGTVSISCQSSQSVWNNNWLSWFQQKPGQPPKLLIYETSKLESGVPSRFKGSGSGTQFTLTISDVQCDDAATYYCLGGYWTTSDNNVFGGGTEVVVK",
    "A450, A450": 0.312
  }
]

Q: Returns the measured A450 for the input binder. Input: rabbit monoclonal anti-mouse/human Id3, clone #BCH-4/#42-1 (antibody, V domains shown, Rabbit IgG from a rabbit hybridoma; also called m/h Id3 MoAb 42-1) VH: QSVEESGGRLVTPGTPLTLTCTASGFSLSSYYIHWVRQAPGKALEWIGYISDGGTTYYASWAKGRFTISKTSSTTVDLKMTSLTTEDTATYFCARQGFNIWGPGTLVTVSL VL: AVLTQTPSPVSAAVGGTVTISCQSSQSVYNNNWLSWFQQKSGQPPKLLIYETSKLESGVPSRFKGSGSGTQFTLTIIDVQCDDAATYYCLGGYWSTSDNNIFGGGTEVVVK
Ans: 0.437
